target: recombinant human CB1 receptors (Homo sapiens, UniProt P21554); assay: Binding to recombinant human CB1 receptors ([3H]-SR-141716A displacement, HEK293 membranes); details: [3H]-SR-141716A 1 nM; membranes of HEK293 cells expressing hCB1; Ki from IC50 by Cheng-Prusoff
Sequence (P21554 whole entry): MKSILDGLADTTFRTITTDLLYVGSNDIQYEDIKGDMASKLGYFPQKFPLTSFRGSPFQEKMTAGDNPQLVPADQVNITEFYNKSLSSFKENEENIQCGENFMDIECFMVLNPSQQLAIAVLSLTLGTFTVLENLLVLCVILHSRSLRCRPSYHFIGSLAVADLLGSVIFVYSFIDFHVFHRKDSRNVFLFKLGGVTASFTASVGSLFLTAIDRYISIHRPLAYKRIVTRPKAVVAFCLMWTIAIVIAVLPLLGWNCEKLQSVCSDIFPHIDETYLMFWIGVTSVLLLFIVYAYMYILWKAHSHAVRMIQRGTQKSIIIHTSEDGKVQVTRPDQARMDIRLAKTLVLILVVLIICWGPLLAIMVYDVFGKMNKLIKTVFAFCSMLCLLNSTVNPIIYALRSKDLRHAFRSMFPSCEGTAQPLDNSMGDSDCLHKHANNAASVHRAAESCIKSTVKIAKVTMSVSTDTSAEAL
valueType: pKi
# pKi = -log10(concentration in molar units)

Prompt line: Value lookup for pKi; key = `C=CCNC(=O)N1CC(OC(c2ccc(Cl)cc2)c2ccc(Cl)cc2)C1`
Response line: 6.55

The reported numbers originate from patent US20060276452A1.
